IC50 values for the compounds below.
Biological target: UniProt:Q9UBN7
Sequence (Q9UBN7 whole entry): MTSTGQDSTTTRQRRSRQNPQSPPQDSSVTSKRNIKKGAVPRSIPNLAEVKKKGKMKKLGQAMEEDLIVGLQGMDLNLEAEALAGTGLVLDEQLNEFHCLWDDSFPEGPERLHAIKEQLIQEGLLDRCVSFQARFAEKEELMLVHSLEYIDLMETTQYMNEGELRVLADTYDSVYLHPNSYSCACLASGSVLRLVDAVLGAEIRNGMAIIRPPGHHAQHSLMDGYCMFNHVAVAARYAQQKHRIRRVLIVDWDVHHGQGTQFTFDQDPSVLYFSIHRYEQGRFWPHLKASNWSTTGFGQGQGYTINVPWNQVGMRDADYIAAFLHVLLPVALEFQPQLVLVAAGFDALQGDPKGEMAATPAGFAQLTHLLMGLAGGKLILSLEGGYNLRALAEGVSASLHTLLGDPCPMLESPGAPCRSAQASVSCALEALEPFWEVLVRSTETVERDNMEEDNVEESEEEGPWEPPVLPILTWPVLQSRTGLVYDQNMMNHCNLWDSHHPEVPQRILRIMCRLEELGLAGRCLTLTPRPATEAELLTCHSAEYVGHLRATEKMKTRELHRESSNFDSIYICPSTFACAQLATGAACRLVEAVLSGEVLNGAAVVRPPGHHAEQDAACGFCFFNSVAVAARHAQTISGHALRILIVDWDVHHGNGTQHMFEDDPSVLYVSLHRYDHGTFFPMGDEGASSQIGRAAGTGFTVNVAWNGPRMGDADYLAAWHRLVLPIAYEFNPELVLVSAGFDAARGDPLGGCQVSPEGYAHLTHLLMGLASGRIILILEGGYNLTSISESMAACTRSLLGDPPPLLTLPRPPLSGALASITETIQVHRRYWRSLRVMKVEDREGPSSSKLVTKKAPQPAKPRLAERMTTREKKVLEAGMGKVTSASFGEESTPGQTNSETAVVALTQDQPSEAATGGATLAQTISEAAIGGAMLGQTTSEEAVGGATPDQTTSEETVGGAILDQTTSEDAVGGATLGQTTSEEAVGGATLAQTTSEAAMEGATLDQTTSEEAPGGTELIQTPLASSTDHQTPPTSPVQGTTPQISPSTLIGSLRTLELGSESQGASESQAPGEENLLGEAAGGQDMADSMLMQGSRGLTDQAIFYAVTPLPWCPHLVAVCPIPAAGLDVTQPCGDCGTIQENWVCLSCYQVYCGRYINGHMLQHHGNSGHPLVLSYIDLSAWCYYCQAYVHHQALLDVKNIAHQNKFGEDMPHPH
I only need the number, in nM, no unit after it.

O=C(/C=C/c1ccc(C(c2c[nH]c3ccccc23)c2c[nH]c3ccccc23)cc1)NO    4900

Please find the next compound below.
Exercise: Recorded IC50 for O=C(CCCCCC(c1c[nH]c2ccc([N+](=O)[O-])cc12)c1c[nH]c2ccc([N+](=O)[O-])cc12)NO , please?
Solution: 20
